Target or system: KRAS (G12C)::SOS1 (Homo sapiens (Human), UniProt P01116, C118S/C51S/C80L/G12C)
Sequence (P01116 other isoform, or with tags, fused parts or gaps G12C/C51S/C80L/C118S): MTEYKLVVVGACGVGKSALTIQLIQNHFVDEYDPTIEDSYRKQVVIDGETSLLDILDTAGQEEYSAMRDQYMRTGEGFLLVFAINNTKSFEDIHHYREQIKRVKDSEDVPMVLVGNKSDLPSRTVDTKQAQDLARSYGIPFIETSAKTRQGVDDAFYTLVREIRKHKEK
Experiment summary: KRAS::SOS1 AlphaScreen binding assay, KRAS G12C
Parameter: IC50 (nM)

> print(dat)
                                   compound  parameter  readout.number
1  C[C@H](Oc1cc(-c2ccncc2)nc(-c2noc3c2CCC[C@@]32CCCc3sc(N)c(C#N)c32)n1)[C@@H]1CCCN1C       IC50               2
2  C[C@H](Oc1cc(N2CCNCC23CCOC3)nc(-c2onc3c2CCC[C@@]32CCCc3sc(N)c(C#N)c32)n1)[C@@H]1CCCN1C (stereo partly drawn)       IC50               3
3  Cc1nc(-c2cc(O[C@@H](C)[C@@H]3CCCN3C)nc(-c3noc4c3CCC[C@@]43CCCc4sc(N)c(C#N)c43)n2)cs1       IC50               2

====

Each entry below carries its reported pIC50.
Target or system: KRAS (G12D)::SOS1 (Homo sapiens (Human), UniProt P01116, G12D)
Sequence (P01116 other isoform, or with tags, fused parts or gaps G12D): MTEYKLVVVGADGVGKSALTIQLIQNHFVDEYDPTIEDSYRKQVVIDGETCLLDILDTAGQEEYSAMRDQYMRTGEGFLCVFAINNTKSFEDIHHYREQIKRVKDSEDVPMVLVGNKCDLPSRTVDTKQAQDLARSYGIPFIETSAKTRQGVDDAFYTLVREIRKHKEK
Experiment summary: KRAS::SOS1 AlphaScreen binding assay, KRAS G12D
pIC50: −log10 of the molar value.
Parameter: pIC50

> print(dat)
                                         smi  parameter  readout.number
 1  CO[C@@H]1C[C@@H]([C@H](C)Oc2cc(N3CCN(C)C4(CC4)C3)nc(-c3onc4c3CCC[C@@]43CCCc4sc(N)c(C#N)c43)n2)N(C)C1      pIC50            9.00
 2  C[C@H](Oc1cc(-c2ccn([C@H]3CCCOC3)n2)nc(-c2noc3c2CCC[C@@]32CCCc3sc(N)c(C#N)c32)n1)[C@@H]1CCCN1C      pIC50            8.70
 3  C[C@H](Oc1cc(N2C[C@H](C)NC3(CC3)C2)nc(-c2onc3c2CCC[C@@]32CCCc3sc(N)c(C#N)c32)n1)[C@@H]1CCCN1C      pIC50            9.00
 4  CO[C@@H]1C[C@@H]([C@H](C)Oc2cc(-n3ccnc3)nc(-c3noc4c3CCC[C@@]43CCCc4sc(N)c(C#N)c43)n2)N(C)C1      pIC50            8.52
 5  C[C@H](Oc1cc(-c2cnn(C)c2)nc(-c2noc3c2CCC[C@@]32CCCc3sc(N)c(C#N)c32)n1)[C@@H]1CCCN1C      pIC50            8.22
 6  CN[C@H]1CCN(c2cc(O[C@@H](C)[C@@H]3CCCN3C)nc(-c3noc4c3CCC[C@@]43CCCc4sc(N)c(C#N)c43)n2)C1      pIC50            8.70
 7  C[C@H](Oc1cc(N2Cc3cnn(C)c3C2)nc(-c2onc3c2CCC[C@@]32CCCc3sc(N)c(C#N)c32)n1)[C@@H]1CCCN1C      pIC50            7.92
 8  C[C@H](Oc1cc(-n2cc3ccn([C@H]4CCOC4)c(=O)c3n2)nc(-c2noc3c2CCC[C@@]32CCCc3sc(N)c(C#N)c32)n1)[C@@H]1CCCN1C      pIC50            9.00
 9  C[C@H](Oc1cc(-n2cc3ccn(C4CCOCC4)c(=O)c3n2)nc(-c2noc3c2CCC[C@@]32CCCc3sc(N)c(C#N)c32)n1)[C@@H]1CCCN1C      pIC50            9.00
10  C[C@H](Oc1cc(-n2ccc(-c3cn(C4CCOCC4)nn3)n2)nc(-c2noc3c2CCC[C@@]32CCCc3sc(N)c(C#N)c32)n1)[C@@H]1CCCN1C      pIC50            9.00
11  C[C@H]1CN(C)CCCN1c1cc(N2CC[C@H](N(C)C)C2)nc(-c2noc3c2CCC[C@@]32CCCc3sc(N)c(C#N)c32)n1      pIC50            9.00
12  COCc1cn(-c2cc(O[C@@H](C)[C@@H]3CCCN3C)nc(-c3noc4c3CCC[C@@]43CCCc4sc(N)c(C#N)c43)n2)nn1      pIC50            8.52

====

System: NCI-H2122 cells
Experiment summary: NCI-H2122 CTG proliferation assay (120 h) (NSCLC, G12C)
Format: cell-based
Run conditions: Homo sapiens
pIC50: −log10 of the molar value.
Each entry below carries its reported pIC50.
Parameter: pIC50

> print(dat)
                                        smi  parameter  readout.number
1  C[C@H](Oc1cc(N2CCOC3(CC3)C2)nc(-c2noc3c2CCC[C@@]32CCCc3sc(N)c(C#N)c32)n1)[C@@H]1CCCN1C      pIC50            5.63
2  Cc1nc(-c2cc(O[C@@H](C)[C@@H]3CCCN3C)nc(-c3onc4c3CCC[C@@]43CCCc4sc(N)c(C#N)c43)n2)cs1      pIC50            6.03
3  CO[C@@H]1C[C@@H]([C@H](C)Oc2cc(-c3ccn(C)n3)nc(-c3onc4c3CCC[C@@]43CCCc4sc(N)c(C#N)c43)n2)N(C)C1      pIC50            5.05
4  C[C@H](Oc1cc(N2CCN(C)C3(CC3)C2)nc(-c2noc3c2CCC[C@@]32CCCc3sc(N)c(C#N)c32)n1)[C@@H]1C[C@@H](F)CN1C      pIC50            5.59
5  C[C@H](Oc1cc([C@H]2CCNC2)nc(-c2noc3c2CCC[C@@]32CCCc3sc(N)c(C#N)c32)n1)[C@@H]1CCCN1C      pIC50            5.35
6  C[C@H](Oc1cc(N2C[C@H]3CN(C)C[C@H]3C2)nc(-c2noc3c2CCC[C@@]32CCCc3sc(N)c(C#N)c32)n1)[C@@H]1CCCN1C      pIC50            5.38
7  C[C@H](Oc1cc(N2CC[C@H](N(C)C)C2)nc(-c2onc3c2CCC[C@@]32CCCc3sc(N)c(C#N)c32)n1)[C@@H]1CCCN1C      pIC50            5.59
8  C[C@H](Oc1cc(-n2cc3c(n2)CNC3)nc(-c2noc3c2CCC[C@@]32CCCc3sc(N)c(C#N)c32)n1)[C@@H]1CCCN1C      pIC50            5.75
9  C[C@H](Oc1cc(N2C[C@H](C)N[C@@H](C)C2)nc(-c2noc3c2CCC[C@@]32CCCc3sc(N)c(C#N)c32)n1)[C@@H]1CCCN1C      pIC50            5.50

====

Experiment summary: Metabolic (microsomal) stability assay, human liver microsomes (HLM)
Assay type: in vitro ADME
Run conditions: predicted clearance as percent of liver blood flow, 1 μM
Each entry below carries its reported HLM QH.
Parameter: HLM QH

> print(dat)
                                    molecule  result
 1  C[C@H](Oc1cc([C@@H]2CCN(C)C2)nc(-c2noc3c2CCC[C@@]32CCCc3sc(N)c(C#N)c32)n1)[C@@H]1CCCN1C [II-37]    <24%
 2  C[C@H](Oc1cc(-c2ccn(C[C@H]3CCOC3)n2)nc(-c2noc3c2CCC[C@@]32CCCc3sc(N)c(C#N)c32)n1)[C@@H]1CCCN1C [II-129]    <24%
 3  C[C@H](Oc1cc(N2CCN(C)C3(CCC3)C2)nc(-c2onc3c2CCC[C@@]32CCCc3sc(N)c(C#N)c32)n1)[C@@H]1CCCN1C [I-44]    <24%
 4  C[C@H](Oc1cc(C2CCCO2)nc(-c2noc3c2CCC[C@@]32CCCc3sc(N)c(C#N)c32)n1)[C@@H]1CCCN1C (stereo partly shown) [II-44]     31%
 5  C[C@H](Oc1cc(N2CCC[C@@H](O)C2)nc(-c2noc3c2CCC[C@@]32CCCc3sc(N)c(C#N)c32)n1)[C@@H]1CCCN1C [II-59]    <24%
 6  C[C@H](Oc1cc(C2=CCOCC2)nc(-c2noc3c2CCC[C@@]32CCCc3sc(N)c(C#N)c32)n1)[C@@H]1CCCN1C [II-67]    <24%
 7  C[C@H](Oc1cc(-n2ccnc2)nc(-c2noc3c2CCC[C@@]32CCCc3sc(N)c(C#N)c32)n1)[C@@H]1C[C@@H](F)CN1C [II-120]     47%
 8  C[C@H](Oc1cc(N2Cc3cnn(C)c3C2)nc(-c2onc3c2CCC[C@@]32CCCc3sc(N)c(C#N)c32)n1)[C@@H]1CCCN1C [I-19]    <24%
 9  C[C@H](Oc1cc(-c2ccn(C)n2)nc(-c2noc3c2CCC[C@@]32CCCc3sc(N)c(C#N)c32)n1)[C@@H]1C[C@@H](F)CN1C [II-27]     44%
10  C[C@H](Oc1cc(-c2cn[nH]c2)nc(-c2noc3c2CCC[C@@]32CCCc3sc(N)c(C#N)c32)n1)[C@@H]1CCCN1C [II-87]    <24%
11  C[C@H]1CN(C)CCCN1c1nc(-c2noc3c2CCC[C@@]32CCCc3sc(N)c(C#N)c32)cc(N2CCN(C)C3(CC3)C2)n1 [II-172]     51%
12  C[C@H](Oc1cc(N2Cc3cnn(C)c3C2)nc(-c2noc3c2CCC[C@@]32CCCc3sc(N)c(C#N)c32)n1)[C@@H]1CCCN1C [II-63]    <24%
13  C[C@H](Oc1cc(-n2cccc3cnnc2-3)nc(-c2noc3c2CCC[C@@]32CCCc3sc(N)c(C#N)c32)n1)[C@@H]1CCCN1C [II-92]    <24%
